This collection of values is drawn from patent US9315458B2.

biological target: human M1 receptor (hCHRM1) (Homo sapiens); assay: Measurement of M1 receptor positive allosteric modulator (M1PAM) activity, calcium fluorescence (FLIPRtetra) with acetylcholine at EC20; details: inflection point of concentration-dependent curve; CHO-K1 cells expressing hCHRM1; acetylcholine at EC20 (final 0.6-0.8 nM); read-out: IP value
The compounds listed here are annotated with their log10 EC50.
Transform log10 | Measure EC50 | Unit nM

[
  {
    "COMPOUND": "Cc1c(Cc2ccc(-n3cccn3)cc2)cc2c(c1Cl)CN([C@H]1CCC[C@@H]1O)C2=O (racemic) [Example 102]",
    "log10 EC50": 1.11
  },
  {
    "COMPOUND": "Cc1cc2c(cc1Cc1ccc(-c3cn(C)nn3)cc1F)C(=O)N([C@H]1CCC[C@@H]1O)C2 (racemic) [Example 53]",
    "log10 EC50": 1.45
  },
  {
    "COMPOUND": "Cc1c(Cc2ccc(Cl)cc2)cc2c(c1C)CN([C@H]1COCC[C@@H]1O)C2=O [Example 17]",
    "log10 EC50": 1.26
  },
  {
    "COMPOUND": "COc1ccc(Cc2cc3c(c(C)c2C)CN([C@H]2COCC[C@@H]2O)C3=O)cc1 (racemic) [Example 165]",
    "log10 EC50": 1.56
  },
  {
    "COMPOUND": "CCc1cc2c(cc1Cc1ccc(-c3ccn(C)n3)cc1)C(=O)N([C@H]1CCC[C@@H]1O)C2 (racemic) [Example 63]",
    "log10 EC50": 1.65
  },
  {
    "COMPOUND": "Cn1cc(-c2ccc(Cc3cc4c(cc3C3CC3)CN([C@H]3CCC[C@@H]3O)C4=O)cc2)nn1 (racemic) [Example 64]",
    "log10 EC50": 1.34
  }
]

Item: O=C1c2cc(Cc3ccc(-n4cccn4)cc3)c(C3CC3)cc2CN1[C@H]1CCC[C@@H]1O (racemic) [Example 9] | System: human M1 receptor (hCHRM1) (Homo sapiens) | log10 EC50: 1.63

Item: COc1ccc(Cc2cc3c(c(Cl)c2C)CN([C@H]2CCCC[C@@H]2O)C3=O)cc1 [Example 151] | System: human M1 receptor (hCHRM1) (Homo sapiens) | log10 EC50: 1.20

Item: Cc1c(Cc2ccc(-n3cccn3)cc2)cc2c(c1F)CN(CC(C)(C)O)C2=O [Example 127] | System: human M1 receptor (hCHRM1) (Homo sapiens) | log10 EC50: 1.77

Item: CCc1cc2c(cc1Cc1ccc(-n3cccn3)cc1)C(=O)N(CC(C)(C)O)C2 [Example 129] | System: human M1 receptor (hCHRM1) (Homo sapiens) | log10 EC50: 1.72

Item: COc1ccc(Cc2cc3c(cc2C)CN([C@H]2CCCC[C@@H]2O)C3=O)cc1 [Example 167] | System: human M1 receptor (hCHRM1) (Homo sapiens) | log10 EC50: 1.48

Item: Cc1cc2c(cc1Cc1ccc(-n3cccn3)cc1)C(=O)N(C1CCOCC1)C2 [Example 8] | System: human M1 receptor (hCHRM1) (Homo sapiens) | log10 EC50: 2.46

Item: COc1ccc(Cc2cc3c(c(C)c2C)CN([C@H]2CCCC[C@@H]2O)C3=O)cc1 [Example 141] | System: human M1 receptor (hCHRM1) (Homo sapiens) | log10 EC50: 1.26

Item: Cc1c(Cc2ccc(C#N)cc2)cc2c(c1C)CN([C@H]1COCC[C@@H]1O)C2=O [Example 156] | System: human M1 receptor (hCHRM1) (Homo sapiens) | log10 EC50: 0.63

Item: Cc1c(Cc2ccc(-n3cccn3)cc2)cc2c(c1Cl)CN([C@H]1COCC[C@@H]1O)C2=O [Example 130] | System: human M1 receptor (hCHRM1) (Homo sapiens) | log10 EC50: 0.34

Item: Cc1c(Cc2ccc(C#N)cc2F)cc2c(c1C)CN([C@H]1CCC[C@@H]1O)C2=O [Example 125] | System: human M1 receptor (hCHRM1) (Homo sapiens) | log10 EC50: 1.86

---

biological target: human M1 receptor (hCHRM1) (Homo sapiens, UniProt P11229); assay: Measurement of M1 receptor positive allosteric modulator (M1PAM) activity, calcium fluorescence (FLIPRtetra) with acetylcholine at EC20; details: inflection point of concentration-dependent curve; CHO-K1 cells expressing hCHRM1; acetylcholine at EC20 (final 0.6-0.8 nM); read-out: IP value
Criterion: EC50 strictly under 10 nM. Met: 1. Not met: -1.

Past entries and their recorded results:
[
  {
    "COMPOUND": "CCc1cc2c(cc1Cc1ccc(-n3cccn3)cc1)C(=O)N([C@H]1COCC[C@@H]1O)C2 [Example 128]",
    "CATEGORY LABEL": 1
  },
  {
    "COMPOUND": "COc1ccc(Cc2cc3c(c(Cl)c2C)CN([C@H]2COCC[C@@H]2O)C3=O)cc1 [Example 24]",
    "CATEGORY LABEL": 1
  },
  {
    "COMPOUND": "Cc1c(Cc2ccc(-n3cccn3)cc2F)cc2c(c1C)CN([C@H]1CCC[C@@H]1O)C2=O [Example 16]",
    "CATEGORY LABEL": -1
  }
]

Input: hey, is EC50 for COc1ccc(Cc2cc3c(c(F)c2C)CN([C@H]2COCC[C@@H]2O)C3=O)cc1 [Example 150] lower than 10 nM or not?
Output: -1

Input: hey, is EC50 for CCc1cc2c(cc1Cc1ccc(-n3cccn3)cc1F)C(=O)N([C@H]1COCC[C@@H]1O)C2 [Example 144] lower than 10 nM or not?
Output: -1

Input: hey, is EC50 for Cc1c(Cc2ccc(-n3cccn3)cc2)cc2c(c1F)CN([C@H]1CCC[C@@H]1O)C2=O [Example 107] lower than 10 nM or not?
Output: -1

Input: hey, is EC50 for COc1ccc(Cc2cc3c(c(C)c2C)CN([C@H]2COCC[C@@H]2O)C3=O)cc1F [Example 158] lower than 10 nM or not?
Output: -1

Input: hey, is EC50 for CNC(=O)c1ccc(Cc2cc3c(c(C)c2C)CN(CC(C)(C)O)C3=O)cc1F [Example 138] lower than 10 nM or not?
Output: -1

---

Molecular target: human M1 receptor (hCHRM1) (Homo sapiens, UniProt P11229)
Sequence (P11229 1-460): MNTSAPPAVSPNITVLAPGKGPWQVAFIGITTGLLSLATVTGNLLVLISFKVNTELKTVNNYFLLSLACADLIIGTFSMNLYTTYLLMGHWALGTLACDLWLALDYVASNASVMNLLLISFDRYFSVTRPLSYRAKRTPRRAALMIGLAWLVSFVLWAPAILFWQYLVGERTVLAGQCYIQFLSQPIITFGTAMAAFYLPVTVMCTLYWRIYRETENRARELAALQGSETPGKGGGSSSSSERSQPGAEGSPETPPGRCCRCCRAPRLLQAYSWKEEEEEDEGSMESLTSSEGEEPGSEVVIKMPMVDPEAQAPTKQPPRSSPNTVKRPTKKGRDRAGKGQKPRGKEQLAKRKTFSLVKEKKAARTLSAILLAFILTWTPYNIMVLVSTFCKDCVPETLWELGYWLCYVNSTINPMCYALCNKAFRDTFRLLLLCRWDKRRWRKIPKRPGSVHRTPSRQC
Test: Measurement of M1 receptor positive allosteric modulator (M1PAM) activity, calcium fluorescence (FLIPRtetra) with acetylcholine at EC20
Conditions: inflection point of concentration-dependent curve; CHO-K1 cells expressing hCHRM1; acetylcholine at EC20 (final 0.6-0.8 nM); read-out: IP value
MEASURE NAME: pEC50
Please report pEC50 as the negative decimal logarithm of the molar concentration, giving only the number.

Reference set (6 entries):
[
  {
    "MOLECULE": "CCc1cc2c(cc1Cc1ccc(-c3ccn(C)n3)cc1)C(=O)N([C@H]1CCC[C@@H]1O)C2 [Example 120]",
    "MEASURE NAME": "pEC50",
    "MEASURED VALUE": 7.60
  },
  {
    "MOLECULE": "O=C1c2cc(Cc3ccc(-n4cccn4)cc3)c(C(F)(F)F)c(Cl)c2CN1[C@H]1CCC[C@@H]1O (racemic)",
    "MEASURE NAME": "pEC50",
    "MEASURED VALUE": 7.07
  },
  {
    "MOLECULE": "Cc1c(Cc2ccc(-n3cccn3)cc2)cc2c(c1C)CN(c1ncccc1F)C2=O",
    "MEASURE NAME": "pEC50",
    "MEASURED VALUE": 7.24
  },
  {
    "MOLECULE": "COc1ccc(Cc2cc3c(c(F)c2OC)CN([C@H]2COCC[C@@H]2O)C3=O)cc1",
    "MEASURE NAME": "pEC50",
    "MEASURED VALUE": 7.08
  },
  {
    "MOLECULE": "Cc1cc2c(cc1Cc1ccc(-n3cccn3)cc1)C(=O)N([C@H]1CCCC[C@@H]1O)C2 (racemic)",
    "MEASURE NAME": "pEC50",
    "MEASURED VALUE": 8.25
  },
  {
    "MOLECULE": "COc1cc(Cc2cc3c(c(C)c2C)CN([C@H]2COCC[C@@H]2O)C3=O)ccc1F",
    "MEASURE NAME": "pEC50",
    "MEASURED VALUE": 7.34
  }
]

// pEC50 value for Cc1cc2c(cc1Cc1ccc(-c3cn(C)nn3)cc1)C(=O)N([C@H]1CCC[C@@H]1O)C2 (racemic) : 7.51

// pEC50 value for Cc1c(Cc2ccc(-c3ccn(C)n3)cc2)cc2c(c1C)CN([C@H]1CCCC[C@@H]1O)C2=O (racemic) : 8.24

// pEC50 value for CCc1cc2c(cc1Cc1ccc(-c3cn(C)nn3)cc1)C(=O)N(CC1CCCO1)C2 (stereo not shown) : 8.00

// pEC50 value for `Cc1c(Cc2ccc(-n3cccn3)cc2F)cc2c(c1C)CN(C[C@@H]1CCCO1)C2=O` : 7.60

// pEC50 value for Cc1cc2c(cc1Cc1ccc(-c3ccn(C)n3)nc1)C(=O)N([C@H]1CCC[C@@H]1O)C2 (racemic) : 7.01
